- Test system: MDA-MB-435
Please state which outcome applies, choosing from active, inactive

Below, 5 compounds whose answers are already recorded.
>>> category_label("O=P(O)(O)OC1C(OP(=O)(O)O)C(OP(=O)(O)O)C(OP(=O)(O)O)C(OP(=O)(O)O)C1OP(=O)(O)O (stereo unspecified)")
"inactive"
>>> category_label("Cn1cc(-c2ccc3cc(-c4ccc(CC(=O)Nc5cc(C(C)(C)C)nn5C)cc4)cnc3c2)cn1")
"active"
>>> category_label("COc1ccc(C(=O)CC2(O)C(=O)Nc3c(Cl)ccc(Cl)c32)cc1 (stereo unspecified)")
"active"
>>> category_label("CCN(CC)CCn1c(=N)n(CC(O)c2ccc(Cl)c(Cl)c2)c2ccccc21 (stereo unspecified)")
"inactive"
>>> category_label("CC[C@]1(O)C[C@@H]2CN(Cc3c([nH]c4ccccc34)[C@@](C(=O)OC)(c3cc4c(cc3OC)N(C)[C@H]3[C@@](O)(C(=O)OC)[C@H](OC(C)=O)[C@]5(CC)[C@@H]6C[C@@H]6CN6CC[C@]43[C@@H]65)C2)C1")
"active"

Q: Assay result, entry `COc1ccc(C(=O)/C=C/c2ccc(Cl)cc2)cc1S(N)(=O)=O` — outcome?
Ans: inactive

Q: Kindly provide the recorded test outcome for the following compound: `Cc1cc(Cl)n2c(nc3ccccc32)c1C#N`
Ans: active

Q: Please indicate how the test categorized `C(=N\Nc1ncc(-c2cc3cc4c(cc3o2)OCO4)s1)/c1c[nH]c2ccccc12` .
Ans: inactive

###

- Test system: OVCAR-8 ovarian
- measurement_protocol: NCI tumour cell line growth inhibition, 48 h
quantity_kind: TGI

get_value(item= CCC12C=CCN3CC[C@]4(C(=C(C(=O)OC)[C@@H]1Nc1ncnc5c1ncn5C1OC(COC(C)=O)C(OC(C)=O)C1OC(C)=O)Nc1ccccc14)C32 (stereo partly drawn) , readout=TGI) returns 4.67 µM

Documented TGI of `Cc1ccc(S(=O)(=O)NCCCN(CCCNS(=O)(=O)c2ccc(C)cc2)S(=O)(=O)c2ccc(C)cc2)cc1` : > 100 µM

Field TGI (entry COc1ccc(C2SC(N)=Nc3c2c(C)nn3C(=O)c2ccncc2)cc1 (stereo not drawn) ) reads > 100 µM

Sure, the documented TGI for `O=C(Nc1ccc(Cl)c(Cl)c1)Nc1ccc(Cl)c([N+](=O)[O-])c1` is 8.91 µM

Record `Nn1c(Cc2ccc(Cl)cc2)n[nH]c1=O` . Reported TGI: > 100 µM

###

- Tested on: IGROV1 ovarian
- measurement_protocol: NCI tumour cell line growth inhibition, 48 h; in the data active means GI50 below about 0.43 µM; inactive means the rest
Allowed answers: active, inactive

>>> category_label("COc1ccc(/C=C2/SC(=Nc3c(C)nn(-c4ccccc4)c3N)NC2=O)cc1")
"inactive"
>>> category_label("CCN(CC)CCCCCCCCNc1c2ccc(Cl)cc2nc2ccc(OC)cc12")
"inactive"
>>> category_label("COC12C=C/C(=C(/C(=O)OCc3ccncn3)C(=O)CCCCCCCCC3(OC)C=C/C(=C(/C(=O)OCc4ccncn4)C(=O)CCCCCCCC1)O3)O2")
"active"

Q: Dear colleague, could you share the recorded outcome for CC(=O)O[C@@H]1C=CC(=O)C2(CC(=O)O[C@@H]2/C=C(\C)CCC=C(C)C)C1 (stereo not given in full) when you have a moment?
Ans: inactive

Q: Hi, do you know how COc1ccc([C@H]2c3cc(OC)c(OC)cc3C=C(C=O)C2CO)cc1OC (stereo not given in full) came out in this test?
Ans: inactive
